Relative potency values, listed per item
species: Bos taurus; assay: Relative potency of compound to that of theophylline against phosphodiesterase from bovine heart
VALUE TYPE: Relative potency

* O=C1CC(=O)[N+](CC2CC2)=C2SC=CN12 | 0.6
* CC1C(=O)N2CCSC2=[N+](CC2CC2)C1=O (centres undefined) | 0.2
* CCC1C(=O)N2C=Cc3ccccc3C2=[N+](CC)C1=O (centres undefined) | 3.2
* C[N+]1=C2SC=NN2C(=O)CC1=O | 0.4
* CCC1C(=O)N(CC)c2scc[n+]2C1=O (centres undefined) | 0.3
* Cn1c(=O)c2[nH]cnc2n(C)c1=O | 1
* O=C1CC(=O)[n+]2ccsc2N1Cc1cccc(Cl)c1 | 1.3
* CCC1C(=O)N2C=CC=CC2=[N+](CC2CCCCC2)C1=O (centres undefined) | 2
* CCC1C(=O)N2C=CSC2=[N+](Cc2ccc(Cl)cc2)C1=O (centres undefined) | 2.2
* CCCC1C(=O)N2N=CN(C)C2=[N+](C)C1=O (centres undefined) | 0.2
* COc1ccc(C[N+]2=C3SC=CN3C(=O)C(C)C2=O)cc1 (centres undefined) | 0.7
* CCC1C(=O)N2CCSC2=[N+](CC2CC2)C1=O (centres undefined) | 0.2
* CCC1C(=O)N2C=CC=NC2=[N+](C)C1=O (centres undefined) | 0.2
* CCC1C(=O)N2C=CSC2=[N+](Cc2ccccc2Cl)C1=O (centres undefined) | 1.4
* CC1C(=O)N2C=CSC2=[N+](CC2CC2)C1=O (centres undefined) | 0.9
* CCC1C(=O)N2C=CSC2=[N+](Cc2ccccc2)C1=O (centres undefined) | 0.9
* CCC1C(=O)N2C=CSC2=[N+](CC(C)C)C1=O (centres undefined) | 0.6
* CCC1C(=O)N2C=CSC2=[N+](Cc2cccc(Cl)c2)C1=O (centres undefined) | 2
* CC[N+]1=C2SC=NN2C(=O)C(C)C1=O (centres undefined) | 0.4
